Provenance of the data: patent US20180339043A1

# Experimental Target: T1, PD-L1 antibody
# T1 construct: also called anti-PD-L1
# Assay Details: dissociation ELISA: PD-L1 antibody dilution series on immobilised biotinylated peptide
Ends that are not written are not given here.
Outcome Measure: pH 6.0: pH 7.2 EC 50 ratio

INSERT INTO results (binder, measured) VALUES
  ('GGLCSTFYEPQVDICY (cysteine pairing not given here; also: biotinylated, chemically synthesized biotinylated peptide) [Peptide 29]', 2.1),
  ('QLFYPSTYHIID (also: biotinylated, chemically synthesized biotinylated peptide) [Peptide 20]', 1.7);

A: GGMCHELFYSNLNWCQ (cysteine pairing not given here; also: biotinylated, chemically synthesized biotinylated peptide) [Peptide 22]
B: GGCHNKSGLFYHYC (cysteine pairing not given here; also: biotinylated, chemically synthesized biotinylated peptide) [Peptide 24]
C: GGHCVDMVDFYQQTCQ (cysteine pairing not given here; also: biotinylated, Chemically synthesized biotinylated peptide; also called 23 (Control)) [Peptide 23]
# ascending order, key=pH 6.0: pH 7.2 EC 50 ratio Please respond with the labels ordered as the question requires.
A, B, C
(A: 1.5, B: 2.8, C: 4.3)
